IC50 reference
target: UniProt C7C422
Sequence (C7C422 whole entry, looked up): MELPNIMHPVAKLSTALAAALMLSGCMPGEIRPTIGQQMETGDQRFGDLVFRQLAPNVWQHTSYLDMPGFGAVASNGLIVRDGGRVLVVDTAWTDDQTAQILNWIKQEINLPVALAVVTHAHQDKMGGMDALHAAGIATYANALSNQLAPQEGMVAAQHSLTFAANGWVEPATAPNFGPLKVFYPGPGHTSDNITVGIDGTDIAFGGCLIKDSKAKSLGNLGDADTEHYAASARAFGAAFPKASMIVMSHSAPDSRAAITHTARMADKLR
Field format: number, assumed µM, no unit text.

[
  {
    "compound": "O=C([O-])CC([O-])(CC(=O)[O-])C(=O)[O-].O=C([O-])CC([O-])(CC(=O)[O-])C(=O)[O-].[Bi+3].[Bi+3].[K+] [Complex 10, colloidal bismuth subcitrate]",
    "readout.unit": "µM",
    "IC50": 5.83
  }
]

Let us move to another entry and its IC50.
Query O=[N+]([O-])[O][Bi]([O][N+](=O)[O-])[O][N+](=O)[O-] on UniProt C7C422; IC50 returned: 1.89
